biological target: Integrin alpha-4/beta-1 (Homo sapiens, UniProt P05556+P13612); assay: In vitro inhibition of binding of integrin alpha4-beta1 to immobilized VCAM-1 expressed on endothelial cell surface.
Sequence (P05556 whole entry): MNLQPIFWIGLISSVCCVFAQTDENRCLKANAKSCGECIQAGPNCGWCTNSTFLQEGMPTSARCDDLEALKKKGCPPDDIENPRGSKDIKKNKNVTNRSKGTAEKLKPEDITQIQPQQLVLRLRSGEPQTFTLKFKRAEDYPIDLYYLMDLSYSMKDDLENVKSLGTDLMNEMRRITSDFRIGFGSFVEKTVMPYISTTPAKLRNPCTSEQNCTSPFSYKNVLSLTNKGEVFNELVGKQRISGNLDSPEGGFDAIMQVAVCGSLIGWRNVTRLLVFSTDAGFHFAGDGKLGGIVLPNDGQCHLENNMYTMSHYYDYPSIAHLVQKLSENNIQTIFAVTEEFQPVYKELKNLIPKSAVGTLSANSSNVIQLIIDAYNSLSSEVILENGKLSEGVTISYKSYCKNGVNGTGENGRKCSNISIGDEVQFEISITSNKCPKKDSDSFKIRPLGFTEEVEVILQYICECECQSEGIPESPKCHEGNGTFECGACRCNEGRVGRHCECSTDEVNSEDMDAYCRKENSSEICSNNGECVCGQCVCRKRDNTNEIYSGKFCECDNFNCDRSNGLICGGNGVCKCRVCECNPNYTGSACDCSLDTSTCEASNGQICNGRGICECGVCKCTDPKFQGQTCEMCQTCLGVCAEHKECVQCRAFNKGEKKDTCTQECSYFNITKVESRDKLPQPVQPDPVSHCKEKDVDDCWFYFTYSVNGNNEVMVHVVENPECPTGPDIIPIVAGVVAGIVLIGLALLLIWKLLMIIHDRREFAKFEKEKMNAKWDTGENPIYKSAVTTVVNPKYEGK
Sequence (P13612 whole entry): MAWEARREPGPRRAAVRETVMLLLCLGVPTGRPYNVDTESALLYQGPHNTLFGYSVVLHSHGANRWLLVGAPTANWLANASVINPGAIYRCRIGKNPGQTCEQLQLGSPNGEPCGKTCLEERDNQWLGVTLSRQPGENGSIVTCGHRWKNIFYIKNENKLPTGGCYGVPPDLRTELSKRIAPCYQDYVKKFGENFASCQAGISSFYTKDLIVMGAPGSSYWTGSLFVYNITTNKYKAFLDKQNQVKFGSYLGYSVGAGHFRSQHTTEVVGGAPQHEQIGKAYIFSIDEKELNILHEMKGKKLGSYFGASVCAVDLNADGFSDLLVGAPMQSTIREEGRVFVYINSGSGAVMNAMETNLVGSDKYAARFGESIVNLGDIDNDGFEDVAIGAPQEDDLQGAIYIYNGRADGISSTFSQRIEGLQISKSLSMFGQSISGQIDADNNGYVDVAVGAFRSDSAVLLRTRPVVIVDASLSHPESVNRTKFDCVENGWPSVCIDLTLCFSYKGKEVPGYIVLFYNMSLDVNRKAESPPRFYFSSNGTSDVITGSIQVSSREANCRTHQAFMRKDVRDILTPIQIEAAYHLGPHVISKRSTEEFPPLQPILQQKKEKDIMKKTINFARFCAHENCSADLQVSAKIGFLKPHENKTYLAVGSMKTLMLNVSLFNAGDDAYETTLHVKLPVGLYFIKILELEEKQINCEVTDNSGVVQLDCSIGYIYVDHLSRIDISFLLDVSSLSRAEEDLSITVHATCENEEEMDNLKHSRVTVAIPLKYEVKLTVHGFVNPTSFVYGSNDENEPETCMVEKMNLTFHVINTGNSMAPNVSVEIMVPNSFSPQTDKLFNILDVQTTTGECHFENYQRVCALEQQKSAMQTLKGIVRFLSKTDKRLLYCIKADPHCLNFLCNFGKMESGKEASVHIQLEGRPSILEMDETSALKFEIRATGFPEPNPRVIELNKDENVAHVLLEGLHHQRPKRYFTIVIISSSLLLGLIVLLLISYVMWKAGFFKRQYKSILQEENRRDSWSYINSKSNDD
assay-metric: IC50 (nM)
Could you give me the number in nM? Just the number is fine.

Below, each entry is followed by its recorded IC50 result.
molecule: Cc1ccc(S(=O)(=O)N2C3CCC(CC3)C2C(=O)N[C@@H](Cc2ccc(NC(=O)Nc3c(Cl)cccc3Cl)cc2)C(=O)O)cc1 (some centres not stated)
unit-of-measurement: nM
IC50: 1600
//
molecule: O=C(Nc1ccc(C[C@H](NC(=O)[C@@H]2C3CCC(CC3)N2S(=O)(=O)c2ccccc2)C(=O)O)cc1)c1cc(Cl)nc(Cl)c1
unit-of-measurement: nM
IC50: 12
//
molecule: O=C(Nc1ccc(C[C@H](NC(=O)C2C3CCC(CC3)N2S(=O)(=O)c2c(Cl)cccc2Cl)C(=O)O)cc1)c1cc(Cl)nc(Cl)c1 (some centres not stated)
unit-of-measurement: nM
IC50: 105
//
molecule: O=C(Nc1ccc(C[C@H](NC(=O)C2C3CCC(CC3)N2S(=O)(=O)c2ccccc2C(F)(F)F)C(=O)O)cc1)c1cc(Cl)nc(Cl)c1 (some centres not stated)
unit-of-measurement: nM
IC50: 81

Determine from records and report IC50 for "O=C(Nc1ccc(C[C@H](NC(=O)[C@@H]2C3CCC(CC3)N2S(=O)(=O)c2ccccc2)C(=O)O)cc1)c1ccncc1"
36

Determine from records and report IC50 for "O=C(Nc1ccc(C[C@H](NC(=O)[C@@H]2C3CCC(CC3)N2S(=O)(=O)c2cccs2)C(=O)O)cc1)c1c(Cl)cccc1Cl"
30

Determine from records and report IC50 for "COc1cccc(OC)c1-c1ccc(C[C@H](NC(=O)[C@@H]2C[C@@H](c3ccccc3)CN2S(=O)(=O)c2ccccc2)C(=O)O)cc1"
30
